System: TK-10
assay info: NCI tumour cell line growth inhibition, 48 h
The source made the active and inactive calls. Rule as the data show it: active = GI50 up to about 1.1 µM and inactive = higher.
measurement name: GI50

Incoming: Output GI50 of COC(=O)C1=C(O)C(C(=O)OC)[C@@]2(O)[C@@H](C(=O)OC)C(c3ccc(OC(=O)/C(=C/c4ccccc4)c4ccccc4)cc3)C[C@@H]1[C@@H]2C(=O)OC (stereo not given in full)
Outgoing: 13.2 µM (inactive)

Incoming: Output GI50 of `O=C1C=CC[C@H](/C=C/C[C@@H](O)C[C@H](O)/C=C/c2ccccc2)O1`
Outgoing: 11.7 µM (inactive)

Incoming: Output GI50 of `C=C(O)c1ccccc1C#Cc1ccccc1C(=O)OC`
Outgoing: > 10 µM (inactive)

Incoming: Output GI50 of `CC1=CC(=O)C(=C(C)C)CC1`
Outgoing: > 100 µM (inactive)

Incoming: Output GI50 of `NNC(=O)c1c(SCc2ccccc2)nc2c3ccccc3ccn12`
Outgoing: 30.9 µM (inactive)

Incoming: Output GI50 of CCC(C)[C@@H](NC1=C(Cl)C(=O)c2c(O)ccc(O)c2C1=O)C(=O)OC (stereo not given in full)
Outgoing: > 10 µM (inactive)

Incoming: Output GI50 of CCOC(=O)C1(C/C=C\CBr)CCCCCCCCCCC1=O (stereo not given)
Outgoing: 8.69 µM (inactive)

Incoming: Output GI50 of `CC(C)/C=N\n1c(N)c(C#N)c(C#N)c1C(C)C`
Outgoing: 22.5 µM (inactive)

Incoming: Output GI50 of `COc1ccc2c(c1)CC[C@@H]1[C@@H]2CC[C@]2(C)/C(=N/OCCN3CCCCC3)CC[C@@H]12`
Outgoing: 4.74 µM (inactive)

Incoming: Output GI50 of `O=C1c2ccccc2C(=O)c2c1oc1cc(O)c(Cl)cc21`
Outgoing: 20.9 µM (inactive)

Just for reference, ChEMBL document CHEMBL1201862 is where these values come from.
